Each entry below lists one item and its recorded Single-concentration inhibitory activity on BTK, Mean (100% inhibition) value.
Molecular target: BTK (Homo sapiens)
Construct: purchased Carna 08-180
Sequence (Q06187 whole entry): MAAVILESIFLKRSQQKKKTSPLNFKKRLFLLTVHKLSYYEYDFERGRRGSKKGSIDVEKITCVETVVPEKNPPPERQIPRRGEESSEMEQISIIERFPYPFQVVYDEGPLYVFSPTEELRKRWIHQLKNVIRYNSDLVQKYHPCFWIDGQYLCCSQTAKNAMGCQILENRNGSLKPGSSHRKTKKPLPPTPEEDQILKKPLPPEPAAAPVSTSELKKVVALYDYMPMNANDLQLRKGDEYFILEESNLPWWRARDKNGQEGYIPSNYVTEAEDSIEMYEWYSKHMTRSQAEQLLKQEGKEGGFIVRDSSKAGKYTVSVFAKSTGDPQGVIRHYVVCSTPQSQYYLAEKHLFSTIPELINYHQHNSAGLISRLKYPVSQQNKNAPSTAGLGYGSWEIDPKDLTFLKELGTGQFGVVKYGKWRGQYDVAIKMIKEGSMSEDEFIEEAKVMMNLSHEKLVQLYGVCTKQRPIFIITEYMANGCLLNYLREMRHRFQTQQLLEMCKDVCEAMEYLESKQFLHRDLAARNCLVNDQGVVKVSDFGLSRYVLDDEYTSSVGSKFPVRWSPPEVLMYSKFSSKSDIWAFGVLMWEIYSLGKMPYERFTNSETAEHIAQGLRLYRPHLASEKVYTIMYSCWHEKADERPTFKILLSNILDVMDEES
Test: Kinase inhibition, mobility shift assay
Type: biochemical
Settings: compound concentration 4 nM
Hi! Could you send only the number? It should be in % inhibition, unit omitted.

chemical_smiles=C=CC(=O)Nc1cccc(Oc2nc(Nc3ccc(N4CCN(C)CC4)c(Cl)c3)nc3[nH]ccc23)c1 readout_value=37
chemical_smiles=C=CC(=O)Nc1cccc(Oc2nc(Nc3ccc(N4CCN(C)CC4)c(N)c3)nc3c2ccn3COC(=O)C(C)(C)C)c1 readout_value=−2.9
chemical_smiles=C=CC(=O)Nc1cccc(Oc2nc(Nc3ccc(N4CCN(C)CC4)c(N)c3)nc3[nH]ccc23)c1 readout_value=27
chemical_smiles=C=CC(=O)Nc1cccc(Oc2nc(Nc3ccc(N4CCN(C)CC4)c([N+](=O)[O-])c3)nc3c2ccn3COC(=O)C(C)(C)C)c1 readout_value=5.9
chemical_smiles=C=CC(=O)Nc1cccc(Oc2nc(Nc3ccc(N4CCN(C)CC4)c([N+](=O)[O-])c3)nc3[nH]ccc23)c1 readout_value=3.8
chemical_smiles=C=CC(=O)Nc1cccc(Oc2nc(Nc3ccc(N4CCN(C)CC4)c(I)c3)nc3c2ccn3COC(=O)C(C)(C)C)c1 readout_value=3.3

For the next question, use this compound.
Challenge: I would be grateful if you could share the reported Single-concentration inhibitory activity on BTK, Mean (100% inhibition) for `C=CC(=O)Nc1cccc(Oc2nc(Nc3ccc(N4CCN(C)CC4)c(OC)c3)nc3[nH]ccc23)c1` .
Response given: 15

====

Each entry below lists one item and its recorded IC50 value.
Target: JAK3 (Homo sapiens)
Sequence (P52333 whole entry): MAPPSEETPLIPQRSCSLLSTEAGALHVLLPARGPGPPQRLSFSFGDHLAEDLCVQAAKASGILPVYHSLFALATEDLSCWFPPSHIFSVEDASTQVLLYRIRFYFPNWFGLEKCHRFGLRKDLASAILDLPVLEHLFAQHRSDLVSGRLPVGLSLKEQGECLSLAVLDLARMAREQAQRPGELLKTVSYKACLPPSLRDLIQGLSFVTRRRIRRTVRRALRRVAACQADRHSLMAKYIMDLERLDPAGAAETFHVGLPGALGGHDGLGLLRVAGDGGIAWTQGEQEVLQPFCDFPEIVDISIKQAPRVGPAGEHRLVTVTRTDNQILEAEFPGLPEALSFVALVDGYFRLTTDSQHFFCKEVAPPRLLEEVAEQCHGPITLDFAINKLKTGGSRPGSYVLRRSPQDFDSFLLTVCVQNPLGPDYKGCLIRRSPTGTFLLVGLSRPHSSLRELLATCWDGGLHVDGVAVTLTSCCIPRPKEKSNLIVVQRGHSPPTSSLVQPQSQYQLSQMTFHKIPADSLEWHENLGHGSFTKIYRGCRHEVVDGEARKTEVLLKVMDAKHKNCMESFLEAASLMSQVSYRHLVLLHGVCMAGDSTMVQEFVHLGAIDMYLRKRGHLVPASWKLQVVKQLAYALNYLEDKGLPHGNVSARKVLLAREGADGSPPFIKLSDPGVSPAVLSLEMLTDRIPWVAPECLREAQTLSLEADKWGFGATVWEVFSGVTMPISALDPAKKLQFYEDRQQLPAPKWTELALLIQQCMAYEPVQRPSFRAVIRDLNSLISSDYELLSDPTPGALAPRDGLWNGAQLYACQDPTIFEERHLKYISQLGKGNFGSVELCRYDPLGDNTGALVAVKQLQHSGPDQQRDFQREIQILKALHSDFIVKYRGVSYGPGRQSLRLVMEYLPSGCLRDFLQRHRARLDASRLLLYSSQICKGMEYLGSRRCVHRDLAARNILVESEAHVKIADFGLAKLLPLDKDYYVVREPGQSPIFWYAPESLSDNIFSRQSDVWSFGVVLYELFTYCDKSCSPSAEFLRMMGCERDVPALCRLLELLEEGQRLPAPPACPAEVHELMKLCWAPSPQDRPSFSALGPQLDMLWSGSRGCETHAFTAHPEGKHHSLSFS
Hi! Could you send only the number? It should be in nM, unit omitted.

Recorded results for 2 molecules are shown here.
molecule="C=CC(=O)Nc1cccc(Oc2nc(Nc3ccc(N4CCN(C)CC4)c(N)c3)nc3[nH]ccc23)c1 [Compound 6]" measurement_type=IC50 readout_value=2.2
molecule="C=CC(=O)Nc1cccc(Oc2nc(Nc3ccc(N4CCN(C)CC4)c(OC)c3)nc3[nH]ccc23)c1 [Compound 4]" measurement_type=IC50 readout_value=2.3

Challenge: I would be grateful if you could share the reported IC50 for C=CC(=O)Nc1cccc(Oc2nc(Nc3ccc(N4CCN(C)CC4)c([N+](=O)[O-])c3)nc3[nH]ccc23)c1 [Compound 5] .
Response given: 2.2

====

Biological target: EGFR (T790M, C797S, L858R) (Homo sapiens, UniProt P00533, C797S/L858R/T790M)
Construct: purchased BPS 40351
Sequence (P00533 25-1210 T790M/C797S/L858R): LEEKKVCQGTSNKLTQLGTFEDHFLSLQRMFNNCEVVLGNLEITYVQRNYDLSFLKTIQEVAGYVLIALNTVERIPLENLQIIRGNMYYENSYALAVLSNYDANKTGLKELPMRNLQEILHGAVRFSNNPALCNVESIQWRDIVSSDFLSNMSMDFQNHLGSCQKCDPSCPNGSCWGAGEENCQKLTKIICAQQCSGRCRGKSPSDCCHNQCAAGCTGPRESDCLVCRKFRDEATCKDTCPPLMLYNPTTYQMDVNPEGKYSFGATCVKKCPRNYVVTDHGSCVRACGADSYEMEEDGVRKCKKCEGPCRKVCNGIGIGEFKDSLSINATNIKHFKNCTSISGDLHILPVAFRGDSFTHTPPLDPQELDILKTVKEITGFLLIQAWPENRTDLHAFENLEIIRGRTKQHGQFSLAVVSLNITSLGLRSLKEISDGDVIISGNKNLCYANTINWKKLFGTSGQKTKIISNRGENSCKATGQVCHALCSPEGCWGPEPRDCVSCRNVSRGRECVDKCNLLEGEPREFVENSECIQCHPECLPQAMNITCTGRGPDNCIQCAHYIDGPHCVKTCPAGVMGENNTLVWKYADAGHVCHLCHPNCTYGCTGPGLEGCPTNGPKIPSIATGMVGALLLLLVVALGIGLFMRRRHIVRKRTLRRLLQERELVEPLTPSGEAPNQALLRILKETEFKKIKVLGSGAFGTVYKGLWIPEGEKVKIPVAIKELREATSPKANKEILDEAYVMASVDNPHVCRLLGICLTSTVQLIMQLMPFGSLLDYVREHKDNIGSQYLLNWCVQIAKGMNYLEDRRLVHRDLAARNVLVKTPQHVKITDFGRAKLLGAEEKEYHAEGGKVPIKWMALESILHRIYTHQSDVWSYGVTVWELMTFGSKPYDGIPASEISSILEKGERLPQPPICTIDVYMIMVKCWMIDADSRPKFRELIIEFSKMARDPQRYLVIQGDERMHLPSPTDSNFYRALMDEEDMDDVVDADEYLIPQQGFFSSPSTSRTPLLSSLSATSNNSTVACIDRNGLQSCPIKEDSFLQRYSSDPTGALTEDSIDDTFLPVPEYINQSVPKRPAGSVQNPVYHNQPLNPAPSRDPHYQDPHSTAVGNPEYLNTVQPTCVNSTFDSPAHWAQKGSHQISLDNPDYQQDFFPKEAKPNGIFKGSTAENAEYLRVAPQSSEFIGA
Test: Kinase inhibition, Lantha Screen assay
Type: biochemical
Settings: read-out: Inhibitory activity (IC50) on EGFR (T790M, C797S, L858R)
measurement.type: pIC50
# pIC50 is unitless: minus log10 of the molar concentration; print number only

Recorded results for 2 compounds are shown here.
compound="C=CC(=O)Nc1cccc(Oc2nc(Nc3ccc(N4CCN(C)CC4)c([N+](=O)[O-])c3)nc3[nH]ccc23)c1 [Compound 5]" measurement_type=pIC50 readout_value=5.65
compound="C=CC(=O)Nc1cccc(Oc2nc(Nc3ccc(N4CCN(C)CC4)c(OC)c3)nc3[nH]ccc23)c1 [Compound 4]" measurement_type=pIC50 readout_value=5.85

Challenge: I would be grateful if you could share the reported pIC50 for C=CC(=O)Nc1cccc(Oc2nc(Nc3ccc(N4CCN(C)CC4)c(N)c3)nc3[nH]ccc23)c1 [Compound 6] .
Response given: 6.33
